SH2 binding enrichment reference
Biological target: Grb2 SH2 (UniProt P62993)
Sequence (P62993 whole entry, looked up, the tested form may be a part): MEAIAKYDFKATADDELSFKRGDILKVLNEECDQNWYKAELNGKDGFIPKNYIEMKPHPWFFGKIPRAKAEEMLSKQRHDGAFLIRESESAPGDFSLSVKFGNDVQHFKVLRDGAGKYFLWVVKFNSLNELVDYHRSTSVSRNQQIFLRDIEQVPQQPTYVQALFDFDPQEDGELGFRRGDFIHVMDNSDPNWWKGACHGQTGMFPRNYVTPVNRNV
Assay: SH2 binding enrichment of the phosphorylated peptide, bacterial display (enrichment ratio); higher = better substrate or ligand; peptides without Tyr show the background;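 note: peptide library displayed on the E. coli surface as eCPX fusions, selected cells deep-sequenced, score is each peptide's frequency after selection divided by its frequency in the input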

> print(dat)
                       chain.sequence         outcome.measure  experimental.value
1            IRRQGYSHRIL [MYO3B_Y993]  SH2 binding enrichment               0.762
2         FEDALYTVLHR [UNC13D_Y61_YF]  SH2 binding enrichment                0.85
3             KGIDRYNPENL [EIF3K_Y21]  SH2 binding enrichment               0.861
4        FDDDDYDMDFV [BLM_Y296_T298M]  SH2 binding enrichment               0.795
5              WIPIQYPIISE [NOG_Y222]  SH2 binding enrichment                1.14
6  LIFVSYDDWDF [GRIN2A_Y281_S278F_YF]  SH2 binding enrichment                1.68

As a next step, examine the sequence that follows.
Asked: Note SH2 binding enrichment for the sequence shown: ENELTYFCCKK [CD59_Y86_YF]
Given back: 0.975
